Origin of values: ChEMBL document CHEMBL5042482

# EXPERIMENT SUMMARY: Half life in Sprague-Dawley rat at 160 mg/kg, ip by UHPLC-MS analysis
# Type: ADME, organism-based
# CONDITION CONTEXT: in vivo
QUANTITY NAME: half-life (h)
Dear colleague, please return just the value in h, with no unit written.

The recorded half-life for entry COc1ccccc1Oc1c(N)nc(-c2ccc(Br)cc2)nc1Cl equals 3.66

###

This section presents molecules with their documented IC50 values.
# Tested on: A-375
# EXPERIMENT SUMMARY: Cytotoxicity against human A-375 cells assessed as reduction in cell viability incubated for 24 hrs by CCK-8 assay
# Assay type: functional, cell-based
# CONDITION CONTEXT: A-375, 24 h

// solved cases for IC50 follow
COc1ccccc1Oc1c(N)nc(-c2ccc(Cl)cc2)nc1Cl    1.03 µM
COc1ccccc1Oc1c(N)nc(Cc2ccccc2)nc1Cl    15.7 µM

The recorded IC50 for entry COc1ccc(-c2nc(N)c(Oc3ccccc3OC)c(Cl)n2)cc1 equals > 80 µM

The recorded IC50 for entry COc1ccccc1Oc1c(N)nc(-c2ccc(Cl)cc2)nc1OCCO equals > 80 µM

The recorded IC50 for entry COc1ccccc1Oc1c(N)nc(-c2ccccc2F)nc1OCCO equals > 80 µM

The recorded IC50 for entry COc1ccccc1Oc1c(N)nc(-c2ccc(F)cc2)nc1Cl equals 28.2 µM

###

Target or system Deoxyhypusine synthase (Homo sapiens, UniProt P49366); recorded quantity log10 IC50.
Remember, log10 of IC50, in µM.

// solved cases for log10 IC50 follow
COc1ccccc1Oc1c(N)nc(-c2cccc(Br)c2)nc1Cl    1.55
COc1ccccc1Oc1c(N)nc(-c2ccc(Cl)cc2)nc1OCCO    1.58
COc1ccccc1Oc1c(N)nc(-c2ccc(C)cc2)nc1Cl    1.77
COc1ccccc1Oc1c(N)nc(-c2ccccc2)nc1OCCO    1.73
COc1ccc(-c2nc(N)c(Oc3ccccc3OC)c(Cl)n2)cc1    1.26
COc1ccccc1Oc1c(N)nc(-c2cccc(C)c2)nc1OCCO    0.07

// moving on: another record for log10 IC50
Fill in: Deoxyhypusine synthase (Homo sapiens, UniProt P49366) log10 IC50 for COc1ccccc1Oc1c(N)nc(-c2cccc(Br)c2)nc1OCCO = 0.63

###

# Tested on: A-375
# EXPERIMENT SUMMARY: Cytotoxicity against human A-375 cells assessed as reduction in cell viability incubated for 24 hrs by CCK-8 assay
# Type: functional, cell-based
# CONDITION CONTEXT: A-375, 24 h
pIC50: −log10 of the molar value.
Rule: pIC50 of 6 or more gives MET; anything lower gives NOT MET.

Here are 3 compounds together with their reported answers.
COc1ccccc1Oc1c(N)nc(-c2ccc(I)cc2)nc1Cl    MET
COc1ccccc1Oc1c(N)nc(-c2ccc(C)cc2)nc1OCCO    NOT MET
COc1ccccc1Oc1c(N)nc(-c2cccc(Br)c2)nc1OCCO    MET

Turning now to a further compound:
Request: Kindly determine if pIC50 recorded for COc1cccc(-c2nc(N)c(Oc3ccccc3OC)c(Cl)n2)c1 is above or exactly 6.
Result: NOT MET

###

This section presents compounds with their documented IC50 values.
# Tested on: A-375
# EXPERIMENT SUMMARY: Cytotoxicity against human A-375 cells assessed as reduction in cell viability incubated for 24 hrs by CCK-8 assay
# Format: functional, cell-based
# CONDITION CONTEXT: A-375, 24 h

COc1ccccc1Oc1c(N)nc(-c2cccc(Cl)c2)nc1Cl    38.3 µM
COc1ccccc1Oc1c(N)nc(-c2cccc(Cl)c2)nc1OCCO    30.2 µM
COc1ccccc1Oc1c(N)nc(-c2ccc(F)cc2)nc1OCCO    15.9 µM
N=C(N)NCCCCCCCN    1.48 µM

The recorded IC50 for entry COc1ccccc1Oc1c(N)nc(-c2ccccc2)nc1OCCO equals > 80 µM

The recorded IC50 for entry COc1ccccc1Oc1c(N)nc(-c2cccc(C)c2)nc1Cl equals 65.3 µM

The recorded IC50 for entry COc1ccccc1Oc1c(N)nc(-c2cccc(F)c2)nc1OCCO equals 8.53 µM
